system: 786-0 renal; test: NCI tumour cell line growth inhibition, 48 h; in the data active = GI50 below about 0.43 µM; inactive = the rest
Outcomes you can answer with include only these: 1 = active, -1 = inactive

Here are 4 molecules together with their reported answers.
smiles_text=CCC(=O)N1C/C(=C/c2ccc(Cl)cc2)C(=O)/C(=C/c2ccc(Cl)cc2)C1 category_label=1
smiles_text=O=C1CCc2c(sc3[nH]c(=S)n(-c4cc(C(F)(F)F)cc(C(F)(F)F)c4)c(=O)c23)C1 category_label=-1
smiles_text=O=C(NCCN1CCOCC1)OCc1nc2nc(Cl)nc(N3CCOCC3)c2[nH]1 category_label=-1
smiles_text=COc1ccc(/C=C(/c2ccccc2)[N+](=O)[O-])c(OC)c1 category_label=-1

Req: Please share the test call associated with CCCn1c2c(c3c(O)cccc31)C(=O)c1ccccc1-2 .
Resp: -1

Req: I would be grateful if you could indicate the recorded call for COc1cc2c3c(n(CCCN)c(=O)c2cc1OC)-c1ccc([N+](=O)[O-])cc1C3=O .
Resp: -1

Req: Query: recorded result category for O=[N+]([O-])c1cc[n+]([O-])c2ccccc12 in this test
Resp: 1
